Value source: PubChem BioAssay (NCI)

Assay: NCI Yeast Anticancer Drug Screen. Data for the rad50EPP+ strain (AID 151);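 note: 0% = growth of vehicle-treated control cultures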
Details: S. cerevisiae rad50 mutant strain, at 1.2 µM
About 79,000 compounds went through this panel and 15% of them were active in at least one assay; those are over-represented in the sample as a whole. Activity calls are given as the source filed them. Cut-off read from the data, not from the text of the source: active = growth inhibition above about 70%; inactive = the rest.
Thanks in advance; please answer with one of these: active, inactive

Q: Field: outcome | Entry: CN(C)N=Nc1ccccc1C(=O)NC#N
Ans: inactive

Q: Next record, please: O=C(CC(C(=O)O)N1CCOCC1)c1ccccc1 (configuration not stated)
Ans: inactive

Q: Next record, please: CCCCNC1CCC2(SCCS2)c2[nH]c3ccccc3c21 (configuration not stated)
Ans: inactive

Q: Next record, please: CCCCN(CCCC)CCC(O)c1cc2c(Cl)cc(Cl)cc2c2cc(C(F)(F)F)ccc12 (configuration not stated)
Ans: inactive

Q: Next record, please: COC(C(O)CO)C(O)C(O)C(=O)NNc1ccccc1 (configuration not stated)
Ans: inactive

Q: Next record, please: CN(C)c1nc(=Nc2cccc(Cl)c2)ss1
Ans: inactive

Q: Next record, please: CC(=O)SC(C[N+](=O)[O-])c1ccccc1 (configuration not stated)
Ans: active

Q: Next record, please: COc1cc(/C=N/Nc2nnc3c4ccccc4c4ncccc4c3n2)cc(OC)c1OC
Ans: inactive

Q: Next record, please: Cc1cc(=O)oc2c(C)c3occc(=O)c3cc12
Ans: inactive

Q: Next record, please: O=C(/C=C\c1cccc(C(F)(F)F)c1)c1ccccc1
Ans: inactive

Q: Next record, please: CCn1c(O)c(C=Nc2ccccc2)s/c1=N/Nc1nc(-c2ccccc2)cs1
Ans: inactive

Q: Next record, please: CCCCCOC(=S)SC(=O)OCC
Ans: inactive

* * *

Experiment: NCI Yeast Anticancer Drug Screen. Data for the sgs1 mgt1 strain (AID 161);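 note: 0% = growth of cultures given vehicle only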
Conditions: S. cerevisiae sgs1 mgt1 strain, at 50.0 µM (retest, dose inferred, filed as 5.0)
The panel holds about 79,000 compounds, 15% with a hit somewhere; the sample as a whole holds those more often. Calls of active or inactive are those of the source. Cut-off read from the data, not from the text of the source: active = growth inhibition above about 70%; inactive = the rest.
Thanks in advance; please answer with one of these: 1 (active), 0 (inactive)

Q: Field: outcome | Entry: Cc1ccc2c(c1)C1(SC(C)C(=O)N1c1ccc(Cl)cc1)C(=O)N2 (stereo unspecified)
Ans: 1

Q: Next record, please: CN(C)/C=C/c1nnc([N+](=O)[O-])s1
Ans: 1

Q: Next record, please: O=C1C=C(Cl)C(=O)C(c2ccc(Cl)cc2)=C1
Ans: 1

Q: Next record, please: CNCCCNc1c2ccccc2nc2cccc([N+](=O)[O-])c12
Ans: 1

Q: Next record, please: Cn1c(=O)c2c(nc(N)n2C2OC(CO)C(O)C2O)n(C)c1=O (stereo unspecified)
Ans: 0

Q: Next record, please: CN(C)Cc1cc(N=Nc2ccc(Cl)cc2)ccc1OC(=O)c1ccccc1
Ans: 0

* * *

Assay: NCI Yeast Anticancer Drug Screen. Data for the sgs1 strain (AID 173);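 note: 0% = growth of vehicle-only control cultures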
Details: S. cerevisiae sgs1 mutant, at 100.0 µM
Protocol: Growth inhibition of yeast strains with defined genetic alterations is measured as a screen for potential anti-cancer activity. Selected strains with alterations in DNA damage repair or cell cycle control were exposed to compounds and growth inhibition was measured relative to vehicle treated controls. The strain used in this assay is sgs1
About 79,000 compounds went through this panel and 15% of them were active in at least one assay; those are over-represented in the sample as a whole. Calls of active or inactive are those of the source. Cut-off read from the data, not from the text of the source: active = growth inhibition above about 70%; inactive = the rest.
Thanks in advance; please answer with one of these: T for active, F for inactive

Q: Field: outcome | Entry: O=[N+]([O-])c1cc[n+]([O-])cc1
Ans: T

Q: Next record, please: COC(=O)/C=C(/CC(=O)OC)C(=O)OC
Ans: F

Q: Next record, please: COc1ccc(C(=O)c2ccccc2C(=O)c2ccccc2OC)cc1
Ans: F

Q: Next record, please: CC1CC[C@]2(C(=O)O)CCC3(C)C(=CC(=O)C4[C@@]5(C)CCC(=O)C(C)(C)C5CC[C@]43C)[C@@H]2[C@H]1C (some centres not stated)
Ans: T

Q: Next record, please: CC1(C)CC(=O)C(/C=N/c2nc(-c3ccccc3)cs2)=C(O)C1
Ans: T

Q: Next record, please: CCCCOC(=O)Nc1ccc(C)c(NC(=O)OCCCC)c1
Ans: T

Q: Next record, please: Oc1ccc(O)c(Cc2ccccc2)c1
Ans: T

Q: Next record, please: CN(C)Cc1cc(N=Nc2ccc(Cl)cc2)ccc1OC(=O)c1ccccc1
Ans: T

Q: Next record, please: CCCCCOC(=S)SC(=O)OCC
Ans: T

Q: Next record, please: C/C=C/SC(=Nc1ccccc1)Nc1ccccc1
Ans: T

Q: Next record, please: O=c1nc2n(Cc3ccccc3)c3ccccc3nc-2c(=O)[nH]1
Ans: T

Q: Next record, please: CC(/C=C/c1ccccc1)=N\NC(N)=S
Ans: F

* * *

Assay: NCI Yeast Anticancer Drug Screen. Data for the CLN2oe strain (AID 163);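 note: 0% = growth of vehicle-only control cultures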
Settings: S. cerevisiae CLN2oe strain, at 33.0 µM
Compounds without any hit were thinned out: in the full panel of roughly 79,000, 15% have a hit. The source made the active and inactive calls. Cut-off read from the data, not from the text of the source: active = growth inhibition above about 70%; inactive = the rest.
Thanks in advance; please answer with one of these: Yes (active), No (inactive)

Q: Field: outcome | Entry: COc1cc(C2c3cc4c(cc3OC(OC(C)=O)C2C)OCO4)cc(OC)c1OC (stereo unspecified)
Ans: No

Q: Next record, please: CN1C(=O)c2ccc3ccccc3c2C1=O
Ans: No

Q: Next record, please: O=[N+]([O-])c1ccc(N/N=C/Cc2ccccc2)c([N+](=O)[O-])c1
Ans: No

Q: Next record, please: CCC(C)(C)c1ccc(Oc2cccc(C(=O)O)c2)cc1
Ans: Yes

Q: Next record, please: O=[N+]([O-])c1cccc2nc3ccccc3c(NCCC[N+]3([O-])CCCCC3)c12
Ans: Yes

Q: Next record, please: CCCCNC1CCC2(SCCS2)c2[nH]c3ccccc3c21 (stereo unspecified)
Ans: No

* * *

Could you please report measured growth inhibition for the items listed next?
Assay: NCI Yeast Anticancer Drug Screen. Data for the CLN2oe strain (AID 163);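 note: 0% = growth of vehicle-only control cultures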
Settings: S. cerevisiae CLN2oe strain, at 3.7 µM, active compounds read high
Compounds without any hit were thinned out: in the full panel of roughly 79,000, 15% have a hit. Calls of active or inactive are those of the source. Cut-off read from the data, not from the text of the source: active = growth inhibition above about 70%; inactive = the rest.

Q: Sample CC(C)(CCCCC(C)(C)[N+](C)(C)C)[N+](C)(C)C — what was its growth inhibition?
Ans: -2% (inactive)

Q: Next record, please: NCCNCCNc1ccc(NCCNCCN)c2c1C(=O)c1c(O)ccc(O)c1C2=O
Ans: -7% (inactive)

Q: Next record, please: Oc1ccc(O)c(Cc2ccccc2)c1
Ans: 28% (inactive)

Q: Next record, please: CCCC(=O)Oc1ccc(/C=N/NC(N)=S)nc1
Ans: -7% (inactive)

Q: Next record, please: COc1oc(C(=O)NC2CCCCC2)c(-c2ccc(Cl)cc2)c1S(=O)(=O)c1ccccc1
Ans: 0% (inactive)

Q: Next record, please: COc1cccc(/C=N/C(/N=C/c2cccc(OC)c2O)c2cccc(OC)c2O)c1O
Ans: 3% (inactive)

* * *

Assay: NCI Yeast Anticancer Drug Screen. Data for the mgt1 strain (AID 153)
Conditions: S. cerevisiae mgt1 mutant growth inhibition; at 1.2 µM; active compounds read high
Compounds without any hit were thinned out: in the full panel of roughly 79,000, 15% have a hit.
property-label: growth inhibition (%)
Answer in %, number only, no unit symbol.

Q: Sample O=C1C(=O)c2ccccc2C(O)=C1C(C1=C(O)c2ccccc2C(=O)C1=O)c1ccc(Cl)cc1 — what was its growth inhibition?
Ans: 4

Q: Next record, please: O=P(NC1CCCCC1)(OCc1ccccc1)OCc1ccccc1
Ans: -1

Q: Next record, please: CCOC(=O)/C(=C\c1ccc(C#N)cc1)C(C)=O
Ans: -23

Q: Next record, please: CN(C)C=NC1CCC(C(C)(C)C)CC1 (configuration not stated)
Ans: -1

Q: Next record, please: CC(=O)Nc1ccc(/C=C/[N+](=O)[O-])cc1
Ans: -2

Q: Next record, please: CCN(CC)CCN(C)CCc1ccc(Br)cc1
Ans: 5

Q: Next record, please: COC(=O)CCC(NC(=S)N/N=C(\C)c1ccccn1)C(=O)OC (configuration not stated)
Ans: 14

Q: Next record, please: NC(N)=NS(=O)(=O)c1ccc(Nc2c3ccccc3nc3c(C(=O)NCCO)cccc23)cc1
Ans: -1

Q: Next record, please: NC1CCCCC1N.Nc1c(N=Nc2ccc(-c3ccc(N=Nc4cc(S(=O)(=O)[O-])c5ccccc5c4N)cc3)cc2)cc(S(=O)(=O)[O-])c2ccccc12.[OH3+].[OH3+].[Pt+4]
Ans: 1

Q: Next record, please: O=C(CC(=O)n1nc(-c2ccccc2)c(N=Nc2ccc(Cl)cc2)c1-c1ccccc1)Nc1cccc(Cl)c1
Ans: -5

Q: Next record, please: Cc1cccc(C(C)(C)C)c1NC(=O)C(C#N)C1=C(Cl)C(=O)c2ccccc2C1=O (configuration not stated)
Ans: 19

Q: Next record, please: CC(=O)SC(C[N+](=O)[O-])c1ccccc1 (configuration not stated)
Ans: 1

Q: Next record, please: O=C(Nc1ccc(Cl)cc1)Nc1nnc2nc(C(C(=O)c3cccc([N+](=O)[O-])c3Cl)c3nc4nnc(NC(=O)Nc5ccc(Cl)cc5)n4[nH]c3=O)c(=O)[nH]n12
Ans: 0

Q: Next record, please: CCCCC/C(=C(\C#N)C(=O)OCC)c1ccccc1
Ans: -3

Q: Next record, please: CC1(C)CC(=O)C(/C=N/c2nc(-c3ccccc3)cs2)=C(O)C1
Ans: -1

Q: Next record, please: CC(C)(C)[Si](C)(C)OCC1CCC(n2cnc3c(NC(=O)c4ccccc4)ncnc32)O1 (configuration not stated)
Ans: -3

Q: Next record, please: Cc1cccc2c1nc1ccc(Cl)cc1[n+]2C
Ans: 0

Q: Next record, please: Nc1nc2ccc(NCc3ccc(C(=O)NC(CCC(=O)O)C(=O)O)cc3)cc2c(=O)[nH]1 (configuration not stated)
Ans: -14

Q: Next record, please: COc1ccc(N=CN(C)C)c(C)c1
Ans: -40

Q: Next record, please: CCCCc1nnc(NS(=O)(=O)c2ccc(C)cc2)s1
Ans: -25

Q: Next record, please: CCCCN(CCCC)C(=O)/C=C/c1ccccc1
Ans: -4

Q: Next record, please: CC1SC2(C(=O)Nc3ccc(Cl)cc32)N(c2ccc(Cl)cc2)C1=O (configuration not stated)
Ans: -5
